# System: PA-1 cells
# Measurement Protocol: MTT cell viability assay, PA-1
# Type: cell-based
pIC50: −log10 of the molar value.
Reported pIC50 is given for each of the following molecules.

C=C1C(=O)OC2CC(C)=C(C(C)CCCOC(C)=O)C(O)C12 (centres unmarked) [OABL, 1-O-acetylbritannilactone]; ~5.70

Next molecule, pIC50 to be filled in.
According to the records, this molecule C=C1C(=O)OC2CC(C)=C(C(C)CCCOC(C)=O)C(OC(C)=O)C12 (centres unmarked) [OODABL, 1,6-O,O-diacetylbritannilactone] displays pIC50 of > 5.11

###

# Test system: MCF-7 cells
# Measurement Protocol: MTT cell viability assay, MCF-7
# Format: cell-based
Experimental Endpoint: IC50

IC50 on MCF-7 cells for C=C1C(=O)OC2CC(C)=C(C(C)CCCOC(C)=O)C(OC(C)=O)C12 (stereo not shown) is < 12.5 µM
